# drug sensitivity score values compiled below
Test system: SW480
method: drug sensitivity score (DSS, integrated dose-response area); higher = more sensitive (stronger viability reduction); extreme values may be limits of the assay
measurement-setup: shRNA: SND1 shRNA1 (SND1 silenced)
Enter your answer as a number in DSS; do not include the unit.

Some solved cases for reference:
- smiles-text: "O=C1c2c(O)ccc(O)c2C(=O)c2c(NCCNCCO)ccc(NCCNCCO)c21"
  assay-system: "SW480"
  observed-measurement: 1.9
- smiles-text: "COc1ccc(-c2ccc3ncc4c(c3c2)n(-c2ccc(N3CCNCC3)c(C(F)(F)F)c2)c(=O)n4C)cn1"
  assay-system: "SW480"
  observed-measurement: 18.6
- smiles-text: "CS(=O)(=O)CCNCc1ccc(-c2ccc3ncnc(Nc4ccc(OCc5cccc(F)c5)c(Cl)c4)c3c2)o1"
  assay-system: "SW480"
  observed-measurement: 0
- smiles-text: "C=CC(=O)Nc1cccc(Nc2nc(Nc3ccc(OCCOC)cc3)ncc2F)c1"
  assay-system: "SW480"
  observed-measurement: 2.5
- smiles-text: "O=C(Nc1cccc(Cl)c1)Nc1ncc(CCNc2ncnc3ccsc23)s1"
  assay-system: "SW480"
  observed-measurement: 4.8

Enter recorded drug sensitivity score with SW480 for C[C@@H]1COC(Nc2ccc3ncnc(Nc4ccc(OCc5nccs5)c(Cl)c4)c3c2)=N1 here.
0.4

Enter recorded drug sensitivity score with SW480 for CCOc1cc2ncc(C#N)c(Nc3ccc(OCc4ccccn4)c(Cl)c3)c2cc1NC(=O)/C=C/CN(C)C here.
3.9

Enter recorded drug sensitivity score with SW480 for COc1ccc(Cn2ccc3ccc(C(=O)NO)cc32)cc1 here.
3.3

Enter recorded drug sensitivity score with SW480 for OCCn1cc(-c2cnc3nnn(Cc4ccc5ncccc5c4)c3n2)cn1 here.
0

---

Tested on: SW480
method: drug sensitivity score (DSS, integrated dose-response area); higher = more sensitive (stronger viability reduction); extreme values may be limits of the assay
measurement-setup: shRNA: SND1 shRNA1 (SND1 silenced)
# drug sensitivity score values compiled below
Enter your answer as a number in DSS; do not include the unit.

Find the measured drug sensitivity score of c1cc(CN2CCCNCCNCCCNCC2)ccc1CN1CCCNCCNCCCNCC1 [Plerixafor] and report it.
0

---

# drug sensitivity score values compiled below
System: SW480
method: drug sensitivity score (DSS, integrated dose-response area); higher = more sensitive (stronger viability reduction); extreme values may be limits of the assay
measurement-setup: shRNA: SND1 shRNA1 (SND1 silenced)
Enter your answer as a number in DSS; do not include the unit.

Some solved cases for reference:
- compound: "Nc1ncnc2c1nc(Cl)n2[C@@H]1O[C@H](CO)[C@@H](O)[C@H]1O"
  assay-system: "SW480"
  observed-measurement: 13.5
- compound: "COc1c(OCCCN2CCOCC2)ccc2c1N=C(NC(=O)c1cnc(N)nc1)N1CCN=C21"
  assay-system: "SW480"
  observed-measurement: 4
- compound: "COc1cc(NS(C)(=O)=O)ccc1Nc1c2ccccc2nc2ccccc12"
  assay-system: "SW480"
  observed-measurement: 8.6
- compound: "CON(C)C(=O)N1N=C(c2cc(F)ccc2F)S[C@@]1(CCCN)c1ccccc1"
  assay-system: "SW480"
  observed-measurement: 16.8
- compound: "O=C(c1cccc(Cl)c1F)N1CCN(Cc2cccc(Nc3nccs3)n2)CC1"
  assay-system: "SW480"
  observed-measurement: 1.7

Find the measured drug sensitivity score of COc1cc(Nc2ncc(F)c(Nc3ccc4c(n3)NC(=O)C(C)(C)O4)n2)cc(OC)c1OC and report it.
0.4

Find the measured drug sensitivity score of Cc1nc(=O)c2cc(CN(C)c3ccc(C(=O)N[C@@H](CCC(=O)O)C(=O)O)s3)ccc2[nH]1 and report it.
5.2

Find the measured drug sensitivity score of Nc1ccccc1NC(=O)c1ccc(CNc2nccc(-c3cccnc3)n2)cc1 and report it.
10.2

Find the measured drug sensitivity score of O=C(Nc1ccc(OC(F)(F)F)cc1)c1sccc1NCc1ccnc2ccccc12 and report it.
1.8

Find the measured drug sensitivity score of CCCS(=O)(=O)Nc1ccc(F)c(C(=O)c2c[nH]c3ncc(-c4ccc(Cl)cc4)cc23)c1F and report it.
0

Find the measured drug sensitivity score of Cc1cc(Nc2cc(CN3CCOCC3)c3nc(C)c(Cc4ccc(Cl)cc4F)n3n2)n[nH]1 and report it.
6.9

Find the measured drug sensitivity score of COc1cccc2c1C(=O)c1c(O)c3c(c(O)c1C2=O)C[C@@](O)(C(C)=O)C[C@@H]3O[C@H]1C[C@H](N)[C@H](O)[C@H](C)O1 and report it.
9.5

Find the measured drug sensitivity score of CNC(=O)c1cc(Oc2ccc(NC(=O)Nc3cc(C(C)(C)C)nn3-c3ccc4ncccc4c3)c(F)c2)ccn1 and report it.
0

Find the measured drug sensitivity score of Cc1cc2c(C(=O)NC[C@H](C)c3ccccc3)c(O)c(O)cc2c(O)c1-c1c(C)cc2c(C(=O)NC[C@H](C)c3ccccc3)c(O)c(O)cc2c1O and report it.
14.2

Find the measured drug sensitivity score of NS(=O)(=O)NCCNc1nonc1/C(=N/O)Nc1ccc(F)c(Br)c1 and report it.
0

---

System: SW480
method: drug sensitivity score (DSS, integrated dose-response area); higher = more sensitive (stronger viability reduction); extreme values may be limits of the assay
measurement-setup: shRNA: SND1 shRNA1 (SND1 silenced)
// thresholds for drug sensitivity score classes: lower band: < 2 DSS; central band: ≥ 2 DSS and < 7 DSS; upper band: ≥ 7 DSS

- compound: "COc1cc2c(cc1O)CC[C@@H]1[C@@H]2CC[C@]2(C)[C@@H](O)CC[C@@H]12"
  group: "central band"
- compound: "C[C@@H]1CN(CC(=O)Nc2ccc3c(c2)Cc2cccc(-c4cc(=O)cc(N5CCOCC5)o4)c2S3)C[C@H](C)O1"
  group: "central band"
- compound: "COc1ccc(S(=O)(=O)Nc2cccnc2Nc2ccc(O)cc2)cc1"
  group: "upper band"
- compound: "CCCCC(=O)OCC(=O)[C@]1(O)Cc2c(O)c3c(c(O)c2[C@@H](O[C@H]2C[C@H](NC(=O)C(F)(F)F)[C@H](O)[C@H](C)O2)C1)C(=O)c1c(OC)cccc1C3=O"
  group: "upper band"

Category lookup for the compound CC(=O)Nc1cccc(-n2c(=O)n(C3CC3)c(=O)c3c(Nc4ccc(I)cc4F)n(C)c(=O)c(C)c32)c1
upper band

Category lookup for the compound CNC(=O)c1ccc(-c2cnc3ncc(Cc4ccc5ncccc5c4)n3n2)cc1F
lower band

Category lookup for the compound CC[C@@]1(O)C(=O)OCc2c1cc1n(c2=O)Cc2cc3ccccc3nc2-1
upper band

Category lookup for the compound N#CC[C@H](C1CCCC1)n1cc(-c2ncnc3[nH]ccc23)cn1
central band

Category lookup for the compound COc1cc(F)c(F)c(Nc2ccc(I)cc2F)c1NS(=O)(=O)C1(C[C@H](O)CO)CC1
upper band

Category lookup for the compound CCN1CCN(Cc2ccc(Nc3ncc(F)c(-c4cc(F)c5nc(C)n(C(C)C)c5c4)n3)nc2)CC1
central band

Category lookup for the compound O=c1[nH]c(=O)n([C@H]2C[C@H](O)[C@@H](CO)O2)cc1F
upper band

Category lookup for the compound O=C(O)C(=O)O.[NH-][C@@H]1CCCC[C@H]1[NH-].[Pt+2]
upper band

Category lookup for the compound CNC(=O)c1cccc2cc(Oc3ccnc4cc(OCC5(N)CC5)c(OC)cc34)ccc12
central band

---

System: SW480
method: drug sensitivity score (DSS, integrated dose-response area); higher = more sensitive (stronger viability reduction); extreme values may be limits of the assay
measurement-setup: shRNA: SND1 shRNA1 (SND1 silenced)
attribute-measured: drug sensitivity score (DSS)
Enter your answer as a number in DSS; do not include the unit.

Some solved cases for reference:
- compound: "Cc1[nH]c2ccccc2c1CCNCc1ccc(/C=C/C(=O)NO)cc1 [Panobinostat]"
  drug sensitivity score / DSS: 19.9
- compound: "CC(C)[C@H](C(=O)Nc1ccc(C(=O)NO)cc1)c1ccccc1 [AR-42]"
  drug sensitivity score / DSS: 19.6
- compound: "Cc1cc(C)c(/C=C2\\C(=O)Nc3ccccc32)[nH]1 [Semaxanib]"
  drug sensitivity score / DSS: 0
- compound: "CC(=O)OC[C@H]1O[C@@H]([S-])[C@H](OC(C)=O)[C@@H](OC(C)=O)[C@@H]1OC(C)=O.CCP(CC)CC.[Au+] [Auranofin]"
  drug sensitivity score / DSS: 6.2
- compound: "N.N.[Cl][Pt][Cl] [Cisplatin]"
  drug sensitivity score / DSS: 8.1
- compound: "O=C(CCCCCCC(=O)Nc1ccccc1)NO [Vorinostat]"
  drug sensitivity score / DSS: 7.8
- compound: "CCNC(=O)CCC/C=C\\C[C@@H]1[C@@H](/C=C/[C@@H](O)CCc2ccccc2)[C@H](O)C[C@@H]1O [Bimatoprost]"
  drug sensitivity score / DSS: 0
- compound: "CC(C)(C)Cn1c(N)nc2ccc(-c3[nH]c(C(C)(C)C)nc3-c3ccc(F)cc3)nc21 [Ralimetinib]"
  drug sensitivity score / DSS: 1.7

# next compound below
Find the measured drug sensitivity score of Oc1c2ccccc2c2c3c(cccc13)N=N2 and report it.
1.8
